Assay system: T1, human CD80-murine Ig fusion protein (human)
T1 construct: Bought (Ancell #510-820); also called hCD80-mIg; human CD80-murine IgG
T1 chain: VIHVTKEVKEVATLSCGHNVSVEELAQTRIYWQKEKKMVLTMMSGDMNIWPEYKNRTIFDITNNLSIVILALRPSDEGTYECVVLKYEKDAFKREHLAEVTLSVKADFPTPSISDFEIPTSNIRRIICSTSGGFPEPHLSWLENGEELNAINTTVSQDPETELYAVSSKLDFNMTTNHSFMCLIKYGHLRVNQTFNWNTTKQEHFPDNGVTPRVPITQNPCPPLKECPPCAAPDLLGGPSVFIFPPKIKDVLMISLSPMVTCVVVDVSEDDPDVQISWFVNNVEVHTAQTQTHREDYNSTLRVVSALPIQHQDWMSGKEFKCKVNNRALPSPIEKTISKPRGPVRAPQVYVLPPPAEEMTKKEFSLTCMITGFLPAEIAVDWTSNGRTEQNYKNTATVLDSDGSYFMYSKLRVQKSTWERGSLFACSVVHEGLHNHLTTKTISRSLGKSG
Assay procedure: SPR Biacore, hCD80-mIg captured
Below: a set of entries, each annotated with reported Kd.

For orientation, consider the following solved cases.
D3-73-IgG2 (Fc fusion) MHVAQPAVVLASSRGIASFVCEYESPGKANEVRVTVLRQADSQVTEVCAMTYMKGNELTFLDDPICTGTFSGNQVNLTIQGLRAMDTGLYICKVELMYPPPYYEGIGNGTQIYVIDPEPCPDSDERKCCVECPPCPAPPVAGPSVFLFPPKPKDTLMISRTPEVTCVVVDVSHEDPEVQFNWYVDGVEVHNAKTKPREEQFNSTFRVVSVLTVVHQDWLNGKEYKCKVSNKGLPAPIEKTISKTKGQPREPQVYTLPPSREEMTKNQVSLTCLVKGFYPSDIAVEWESNGQPENNYKTTPPMLDSDGSFFLYSKLTVDKSRWQQGNVFSCSVMHEALHNHYTQKSLSLSPG | < 0.439 nM
D1-IgG2 (Fc fusion) MHVAQPAVVLASSRGIASFVCEYESPHKATEIRVTVLRQANSQVTEVCAMTYMKGDELTFLDDPFCTGTFSGNQVNLTIQGLRAADTGLYICKVELMYPPPYYLGIGNGTQIYVIDPEPCPDSDERKCCVECPPCPAPPVAGPSVFLFPPKPKDTLMISRTPEVTCVVVDVSHEDPEVQFNWYVDGVEVHNAKTKPREEQFNSTFRVVSVLTVVHQDWLNGKEYKCKVSNKGLPAPIEKTISKTKGQPREPQVYTLPPSREEMTKNQVSLTCLVKGFYPSDIAVEWESNGQPENNYKTTPPMLDSDGSFFLYSKLTVDKSRWQQGNVFSCSVMHEALHNHYTQKSLSLSPG | < 0.439 nM
D3-26-IgG2 (Fc fusion) MHVAQPAVVLASSRGIASFVCEYASPGKANEIRVTVLRQADSQVTEVCAMTYMKGNELTFLDDPSCTGTFSGNQVNLTIQGLRAMDTGLYICKVELMYPPPYYLGIGNGTQIYVIDPEPCPDSDERKCCVECPPCPAPPVAGPSVFLFPPKPKDTLMISRTPEVTCVVVDVSHEDPEVQFNWYVDGVEVHNAKTKPREEQFNSTFRVVSVLTVVHQDWLNGKEYKCKVSNKGLPAPIEKTISKTKGQPREPQVYTLPPSREEMTKNQVSLTCLVKGFYPSDIAVEWESNGQPENNYKTTPPMLDSDGSFFLYSKLTVDKSRWQQGNVFSCSVMHEALHNHYTQKSLSLSPG | 0.439 to 1.75 nM

Item under review: D2-IgG2 (Fc fusion) MHVAQPAVVLASSRGIASFVCEYESPHKANEIRVTVLRQANSQVTEVCAMTYMKGDELTFLDDPFCTGTFSGNQVNLTIQGLRAADTGLYICKVELMYPPPYYLGMGNGTQIYVIDPEPCPDSDERKCCVECPPCPAPPVAGPSVFLFPPKPKDTLMISRTPEVTCVVVDVSHEDPEVQFNWYVDGVEVHNAKTKPREEQFNSTFRVVSVLTVVHQDWLNGKEYKCKVSNKGLPAPIEKTISKTKGQPREPQVYTLPPSREEMTKNQVSLTCLVKGFYPSDIAVEWESNGQPENNYKTTPPMLDSDGSFFLYSKLTVDKSRWQQGNVFSCSVMHEALHNHYTQKSLSLSPG . Reported Kd?
< 0.439 nM

Data provenance: patent US20110177071A1
